# SETTINGS: 100.0 µM
Below, each entry is listed alongside its reported relative solubility at 100 uM.

- COMPOUND: "CCN1CCN(Cc2ccccc2CNC(=O)[C@@]2(C)CCN2C(=O)OC(C)(C)C)CC1 (stereo in doubt)"
  READOUT VALUE: 1
- COMPOUND: "CC(=O)NCCc1c[nH]c2c(NCc3ccc4nc[nH]c4c3)cc(F)cc12"
  READOUT VALUE: 0.86
- COMPOUND: "C=CC(=O)N1CCN(Cc2cc(Cl)cc3ccccc23)CC1"
  READOUT VALUE: 0.75
- COMPOUND: "C=CC(=O)N(c1ccc(C(C)(C)C)cc1)C(C(=O)NCC1CCCO1)c1cccnc1 (stereo not given)"
  READOUT VALUE: 0.99

Looking for the measured relative solubility at 100 uM of CC(Cl)C(=O)N1CCC(C(=O)N2CCCCC2)CC1 (stereo not given) , can you help? 1

Same lookup for C=CC(=O)N(c1ccc(C(C)(C)C)cc1)C(C(=O)Nc1ccc(OC)nc1)c1cccnc1 (stereo not given) , please. 1

Same lookup for `O=C(NCCNc1ccnc2cc(Cl)ccc12)Nc1ccc(F)cc1` , please. 0.94

Same lookup for `O=C(c1ccccc1)N1CCN(C(=O)C2CCOCC2)CC1` , please. 1

Same lookup for Cc1cccc(C)c1OCC(=O)N[C@@H](Cc1ccccc1)[C@@H](O)C[C@H](Cc1ccccc1)NC(=O)[C@H](C(C)C)N1CCCNC1=O (stereo in doubt) , please. 0.53

Same lookup for `Cc1cc(C)cc(NC(=O)Cc2cnn(C)c2C)c1` , please. 1.01

* * *

# TGT: SARS-CoV-2 Main Protease (SARS-CoV-2)
# SETTINGS: 50.0 µM
Below, each entry is listed alongside its reported inhibition.
Report as a plain number; the unit % is understood.

Use these answered entries as a reference point.
- MOLECULE: "NS(=O)(=O)c1ccc(N2CCC(CN3CCCCC3)CC2)cc1"
  inhibition [%]: -2.58
- MOLECULE: "Cc1ccncc1NC(=O)C1(c2cccc(Cl)c2)CC1"
  inhibition [%]: 61.6
- MOLECULE: "CCOc1ccccc1OC1CCN(C(=O)c2cc(=O)[nH]c3ccc(F)cc23)C1 (configuration not stated)"
  inhibition [%]: 18.2
- MOLECULE: "CCOc1ccccc1CN1C(=O)C(=O)c2cc(Br)ccc21"
  inhibition [%]: 3.64
- MOLECULE: "Cc1cc(C)c(C)c(S(=O)(=O)N2CCN(C(=O)c3cc(=O)[nH]c4ccccc34)CC2)c1C"
  inhibition [%]: 92.9

Looking for the measured inhibition of `CCOc1ccccc1/C=C1/C(=O)NC(=O)c2ccccc21` , can you help? 4.82

Same lookup for Cc1ccncc1NC(=O)C(C)c1cccc(Cl)c1 (configuration not stated) , please. 78.7

Same lookup for C[C@H](NC(=O)[C@@H](C)c1ccc(F)c(F)c1)c1cccc(F)c1 (stereo in doubt) , please. -31.4

Same lookup for `O=C(NCc1ccno1)c1ccccc1OC1CCCCC1` , please. 5.82

Same lookup for Cc1cccc(-c2nnnn2C2CC2C)c1NC(=O)CCc1cccnc1 (configuration not stated) , please. -16.5

* * *

# SETTINGS: 100.0 µM
PROPERTY NAME: relative solubility at 100 uM

Use these answered entries as a reference point.
- COMPOUND: "Cc1ccncc1NC(=O)C1C2CCOCC21 (stereo not given)"
  PROPERTY NAME: "relative solubility at 100 uM"
  READOUT VALUE: 1
- COMPOUND: "O=C(Cc1c[nH]c2ncccc12)N(Cc1c(F)cccc1Cl)c1ccc2[nH]c(=O)[nH]c2c1"
  PROPERTY NAME: "relative solubility at 100 uM"
  READOUT VALUE: 0.88
- COMPOUND: "O=C(c1cc(=O)[nH]c2ccccc12)N1CCN(S(=O)(=O)c2ccccc2)CC1"
  PROPERTY NAME: "relative solubility at 100 uM"
  READOUT VALUE: 0.97

Looking for the measured relative solubility at 100 uM of C=C(CN(C)C)C(=O)N1Cc2ccccc2C(c2ccccc2)C1 (stereo not given) , can you help? 0.97

Same lookup for C=CC(=O)N(c1ccc(C(C)OC)cc1)C(C(=O)Nc1ccc(OC)cc1C)c1cccnc1 (stereo not given) , please. 0.97
